Tested on: ACHN renal
Assay: NCI tumour cell line growth inhibition, 48 h; in the data active = GI50 below about 0.43 µM; inactive = the rest
Choose one outcome from this list and give only that: class 1 (active), class 0 (inactive)

MOLECULE | CLASSIFICATION
CN(C)CCCN1c2nc3ccccc3cc2Sc2cc3ccccc3nc21 | class 0
OCC1OC(n2ccc3c(NO)ncnc32)C(O)C1O (stereo not given) | class 1
COc1cc2c3c(n(CCCNCCN)c(=O)c2cc1OC)-c1cc2c(cc1C3=O)OCO2 | class 1
CCN1C(=S)N(CC)C2C1NC(=S)N2/N=C/C=C/c1ccccc1 (stereo not given) | class 0
COc1ccc(-c2cc(/C=C3\C(=O)Nc4ccc(Cl)cc43)[nH]n2)cc1 | class 0

Could you now look at the following molecule, please?
### Prompt # fetch the recorded call for COc1cc(/C=C2\CC3C4CC=C5C[C@@H](OC(C)=O)CC[C@]5(C)C4CC[C@]3(C)C2=O)ccc1OCCCn1ccnc1 (stereo not given in full) here
### Response class 0
